Below are IC50 values for Coagulation factor X (Homo sapiens, UniProt P00742) collected from several publications.
Note: every record was labeled by where its IC50 sits among Low = under 0.008 µM, Mid = from 0.008 µM up to 0.2 µM, High = 0.2 µM and over

Task item: Would you mind sorting "CC1(C)OB(c2ccc(NC(=N)N)cc2)OC1(C)C.O=C(O)C(F)(F)F" into the appropriate category?
Reply: High

Task item: Let us now turn to "Cc1cc(C(=O)Nc2ccc(C(=N)N3CCCCC3)cc2F)n(-c2cc3ccccc3cc2S(C)(=O)=O)n1"
Reply: Mid

Task item: Same read-out for "Cc1ccc(N/C(=C\[N+](=O)[O-])N[C@H]2CCCCN(CC(=O)N3CCCC3)C2=O)cc1" ?
Reply: High

Task item: Please give the result for "CCN(CC)C(=O)[C@H]1CC[C@H](NC(=O)c2cc3cc(Cl)ccc3[nH]2)[C@H](NC(=O)c2nc3c(s2)CN(C)CC3)C1" too.
Reply: Low

Task item: // query: "O=C(O)CCS(=O)(=O)c1ccc2cc(Cl)ccc2c1"
Reply: High

Task item: For "O=C(CCS(=O)(=O)c1ccc2cc(Cl)ccc2c1)N1CCN(c2cccc3ncc(CO)n23)CC1" then?
Reply: Mid

Task item: Same again, this time with "CO[C@H]1O[C@H](COS(=O)(=O)O)[C@@H](O[C@@H]2O[C@@H](C(=O)O)[C@@H](O[C@@H]3O[C@H](COS(=O)(=O)O)[C@@H](O[C@@H]4O[C@H](C(=O)O)[C@@H](O[C@H]5O[C@H](COS(=O)(=O)O)[C@@H](O)[C@H](O)[C@H]5NC=O)[C@H](O)[C@H]4O)[C@H](OS(=O)(=O)O)[C@H]3NS(=O)(=O)O)[C@H](O)[C@H]2OS(=O)(=O)O)[C@H](O)[C@H]1NS(=O)(=O)O"
Reply: Low

Task item: Also "COCCN(C)c1cc(Cl)cc(C(=O)Nc2ccc(Cl)cn2)c1NC(=O)c1ccc(C(=N)N(C)C)cc1" , if possible.
Reply: Low

Task item: What do you get for "N=C(N)N1CCc2ccc(S(=O)(=O)CC3(C(=O)O)CCN(c4ccncc4)CC3)cc2C1" ?
Reply: High

Task item: Could you do the same for COc1cccc(C(=O)O)c1OCC(O)c1cc(-c2ccc3c(c2)[C@H](N)CO3)cc(C(C)C)c1 (mixture of isomers) , please?
Reply: High

Task item: And O=C(C1CCN(c2ccncc2)CC1)N1CCC(CNS(=O)(=O)c2ccc3cc(Cl)ccc3c2)C1 (racemic) ?
Reply: High

Task item: Okay, and "Cc1cc(CNC(=O)[C@@H]2C=CCN2C(=O)[C@@H](CC2CCCCC2)NCC(=O)O)sc1C(=N)N" ?
Reply: High
